# Tested on: SW-620
# Protocol Summary: Cell cycle arrest in human SW620 cells assessed as accumulation at G2/M phase after 24 hrs using propidium iodide staining by FACS analysis
# Format: functional, cell-based
# Condition Label: SW-620, 24 h
pIC50: −log10 of the molar value.

- Compound: "COc1cc2c(c(OC)c1OC)-c1ccc(OC)c(=O)cc1[C@@H](NC(C)=O)CC2 [COLCHICINE]"
  pIC50: 7.85

* * *

# Tested on: HeLa
# Protocol Summary: Cytotoxicity against human HeLa cells after 48 to 72 hrs by […] assay
# Type: functional, cell-based
Measured IC50 of individual entries

- Smiles Data: "COc1ccc(S(=O)(=O)Nc2cccnc2Nc2ccc(O)cc2)cc1"
  Value Unit: "nM"
  IC50: 270
- Smiles Data: "CC(=O)Nc1cc(C(=O)c2cc(C)nc(N3CCOCC3)c2)cc(-c2cccc3[nH]ccc23)c1"
  Value Unit: "nM"
  IC50: 490
- Smiles Data: "CC(=O)O[C@H]1C(=O)[C@@]2(C)[C@H]([C@H](OC(=O)c3ccccc3)[C@]3(O)C[C@H](OC(=O)[C@H](O)[C@@H](NC(=O)c4ccccc4)c4ccccc4)C(C)=C1C3(C)C)[C@]1(OC(C)=O)CO[C@@H]1C[C@@H]2O"
  Value Unit: "nM"
  IC50: 20
- Smiles Data: "COC(=O)Nc1cc(C(=O)c2ccnc(N3CCOCC3)c2)cc(-c2cccc3[nH]ccc23)c1"
  Value Unit: "nM"
  IC50: 280
